Reported IC50 is given for each of the following compounds.
- Experimental System: DYRK1A (Rattus norvegicus, UniProt Q63470)
- Test Details: DYRK1A in vitro kinase assay (33P-ATP, Woodtide substrate)
- Assay type: biochemical
Recorded Endpoint: IC50 (µM)

Compound	Experimental System	Recorded Endpoint	Inequality Sign	Value
CCN(CC)CCNC(=N)c1nc2ccc3ncnc(Nc4ccc(OC)cc4)c3c2s1	DYRK1A (Rattus norvegicus, UniProt Q63470)	IC50	=	4
NC(=O)c1nc2ccc3ncnc(Nc4ccc5c(c4)OCO5)c3c2s1	DYRK1A (Rattus norvegicus, UniProt Q63470)	IC50	=	0.8
N=C(NCCN1CCOCC1)c1nc2ccc3ncnc(Nc4ccc5c(c4)OCO5)c3c2s1	DYRK1A (Rattus norvegicus, UniProt Q63470)	IC50	=	2.2
COC(=N)c1nc2ccc3ncnc(Nc4ccc5c(c4)OCO5)c3c2s1	DYRK1A (Rattus norvegicus, UniProt Q63470)	IC50	=	0.047
CN(C)C(=N)c1nc2ccc3ncnc(Nc4ccc(F)c(Cl)c4)c3c2s1 [Compound 10g]	DYRK1A (Rattus norvegicus, UniProt Q63470)	IC50	=	6.5
COc1ccc(Nc2ncnc3ccc4nc(C(=N)NCCN5CCCC5)sc4c23)cc1	DYRK1A (Rattus norvegicus, UniProt Q63470)	IC50	>	10
NC(=O)c1nc2ccc3ncnc(Nc4ccc(Br)cc4F)c3c2s1	DYRK1A (Rattus norvegicus, UniProt Q63470)	IC50	=	0.67
N#Cc1nc2ccc3ncnc(Nc4ccc5c(c4)OCO5)c3c2s1	DYRK1A (Rattus norvegicus, UniProt Q63470)	IC50	>	10
N#Cc1nc2ccc3ncnc(Nc4ccc(F)c(Cl)c4)c3c2s1	DYRK1A (Rattus norvegicus, UniProt Q63470)	IC50	>	10
COc1ccc(Nc2ncnc3ccc4nc(C(=N)NCCN5CCOCC5)sc4c23)cc1	DYRK1A (Rattus norvegicus, UniProt Q63470)	IC50	>	10

====

Parameter pIC50: see the listing below.
- Experimental System: DYRK1A (Rattus norvegicus, UniProt Q63470)
- Test Details: DYRK1A in vitro kinase assay (33P-ATP, Woodtide substrate)
- Type: biochemical
- Cond: 15 μM ATP, 30 min at 30 °C, triplicate; <50% inhibition at 10 µM reported as >10
pIC50: −log10 of the molar value.

Query Smiles	Inequality Sign	pIC50
N=C(NCCN1CCCC1)c1nc2ccc3ncnc(Nc4ccc(Br)cc4F)c3c2s1	<	5.00
CN(C)CCNC(=N)c1nc2ccc3ncnc(Nc4ccc5c(c4)OCO5)c3c2s1	=	5.98
N=C(NCCN1CCCC1)c1nc2ccc3ncnc(Nc4ccc5c(c4)OCO5)c3c2s1	=	5.96
N=C(NCCN1CCOCC1)c1nc2ccc3ncnc(Nc4ccc(Br)cc4F)c3c2s1	<	5.00

====

// melting point lookup, one value per entry

Query Smiles	melting point
N#Cc1nc2ccc3ncnc(Nc4ccc(F)c(Cl)c4)c3c2s1	252 °C
COc1ccc(Nc2ncnc3ccc4nc(C#N)sc4c23)cc1	> 260 °C
N#Cc1nc2ccc3ncnc(Nc4ccc5c(c4)OCO5)c3c2s1	> 260 °C
N#Cc1nc2ccc3ncnc(Nc4ccc(Br)cc4F)c3c2s1	> 260 °C

====

- Experimental System: DYRK1A (Rattus norvegicus, UniProt Q63470)
- Test Details: DYRK1A in vitro kinase assay (33P-ATP, Woodtide substrate)
- Type: biochemical
pIC50: −log10 of the molar value.
This section presents molecules with their documented pIC50 values.

Molecule	Experimental System	pIC50
N=C(NCc1ccccc1)c1nc2ccc3ncnc(Nc4ccc(Br)cc4F)c3c2s1	DYRK1A (Rattus norvegicus, UniProt Q63470)	< 5.00
COc1ccc(Nc2ncnc3ccc4nc(C(=N)NCc5ccccc5)sc4c23)cc1	DYRK1A (Rattus norvegicus, UniProt Q63470)	5.10
COc1ccc(Nc2ncnc3ccc4nc(C(=N)NCCN(C)C)sc4c23)cc1	DYRK1A (Rattus norvegicus, UniProt Q63470)	< 5.00
N=C(NCc1ccccc1)c1nc2ccc3ncnc(Nc4ccc5c(c4)OCO5)c3c2s1	DYRK1A (Rattus norvegicus, UniProt Q63470)	< 5.00
N#Cc1nc2ccc3ncnc(Nc4ccc(Br)cc4F)c3c2s1	DYRK1A (Rattus norvegicus, UniProt Q63470)	< 5.00
N=C(NCc1ccccc1)c1nc2ccc3ncnc(Nc4ccc(F)c(Cl)c4)c3c2s1 [Compound 10f]	DYRK1A (Rattus norvegicus, UniProt Q63470)	< 5.00
COc1ccc(Nc2ncnc3ccc4nc(C#N)sc4c23)cc1	DYRK1A (Rattus norvegicus, UniProt Q63470)	< 5.00
COc1ccc(Nc2ncnc3ccc4nc(C(=N)N(C)C)sc4c23)cc1	DYRK1A (Rattus norvegicus, UniProt Q63470)	6.15
COc1ccc(Nc2ncnc3ccc4nc(C(=N)NCCN5CCCCC5)sc4c23)cc1	DYRK1A (Rattus norvegicus, UniProt Q63470)	< 5.00
